assay: chemical genetic growth profiling, strain panel (AID 1159580);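 further: tested at 20 µM; growth read once vehicle control cultures reached saturation at 30 °C; 1 = growth at the plate median or of vehicle wells; lower values mean less growth of the strain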; details: S. cerevisiae deletion strains, growth OD, locus YKL160W, strain elf1, hits give low values
The whole screen tested about 5,500 compounds, of which about 2,000 (36%) were called active. Roughly 18% stayed inconclusive and do not appear here. This is one part of the list.
This section presents compounds with their documented normalized growth values.
// no unit string in output, number only

Example compounds with recorded normalized growth:
compound	data_value
C/C=C(/C(=C/C)c1ccc(O)cc1)c1ccc(O)cc1	0.947
OCC(O)Cc1ccc2c(c1)OCO2 (configuration not stated)	1

Asked: Give me measured normalized growth, please, for this compound: "Cn1cc[nH]c1=S"
Given back: 0.952

---

assay: chemical genetic growth profiling, strain panel (AID 1159580);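 further: tested at 20 µM; growth read once vehicle control cultures reached saturation at 30 °C; 1 = growth at the plate median or of vehicle wells; lower values mean less growth of the strain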; details: S. cerevisiae deletion strains, growth OD, locus YDR502C, strain sam2
The campaign covered roughly 5,500 compounds. About 2,000 (36%) were called active. Inconclusive results (about 18%) are left out. No stated cut-off is given here; in the data, active means normalized growth mostly below about 0.91 (no sharp cut-off); inconclusive means no clear call, values can overlap the other calls; inactive means mostly above about 0.92. The list shows a part of the results.
Field 'call' accepts true (active), false (inactive)

Some solved cases for reference:
compound	label
CCC(C(=O)O)c1ccccc1 (stereo unspecified)	false
CCCCOc1ccc(CC(=O)NO)cc1	false
CCCCCC(C)N (stereo unspecified)	false
COc1ccc2cc1Oc1ccc(cc1)C[C@H]1c3cc(c(OC)cc3CCN1C)Oc1c(OC)c(OC)cc3c1[C@H](C2)N(C)CC3	false
Cc1cc(C(C)(C)CC(C)(C)C)ccc1OCCOCC[N+](C)(C)Cc1ccccc1	true

Attention now shifts to the item below.
Asked: Entry "O=C(/C=C/C=C/c1ccc2c(c1)OCO2)N1CCCCC1" : call = ?
Given back: true

---

test: chemical genetic growth profiling, strain panel (AID 1159580);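 further: tested at 20 µM; growth read once vehicle control cultures reached saturation at 30 °C; 1 = growth at the plate median or of vehicle wells; lower values mean less growth of the strain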; conditions: S. cerevisiae deletion strains, growth OD, locus YOR290C, strain snf2, hits give low values
About 2,000 (36%) of roughly 5,500 compounds were called active. Roughly 18% stayed inconclusive and do not appear here. This is one part of the list.
This section presents compounds with their documented normalized growth values.
// no unit string in output, number only

compound	normalized growth
CC1(C)C2CC[C@]3(C)C(C(=O)C=C4[C@H]5C[C@@](C)(C(=O)O)CC[C@]5(C)CC[C@]43C)[C@@]2(C)CC[C@@H]1O (some centres undefined)	0.944
CN1CCc2cc3c(cc2C1O)OCO3 (centres undefined)	1.04
C=CC1=C(C(=O)O)N2C(=O)[C@@H](NC(=O)/C(=N/O)c3csc(N)n3)[C@H]2SC1	1.01

Asked: Give me measured normalized growth, please, for this compound: CC1(C)C2CC[C@]3(C)C(C(=O)C=C4[C@@H]5C[C@@](C)(C(=O)O)CC[C@]5(C)CC[C@]43C)[C@@]2(C)CC[C@@H]1OC(=O)CCC(=O)O (some centres undefined)
Given back: 0.96

---

experiment: chemical genetic growth profiling, strain panel (AID 1159580);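 further: tested at 20 µM; growth read once vehicle control cultures reached saturation at 30 °C; 1 = growth at the plate median or of vehicle wells; lower values mean less growth of the strain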; details: S. cerevisiae deletion strains, growth OD, locus YPR141C, strain kar3, hits give low values
The whole screen tested about 5,500 compounds, of which about 2,000 (36%) were called active. About 18% were inconclusive and are not listed. This is one part of the list.
This section presents compounds with their documented normalized growth values.

Example compounds with recorded normalized growth:
compound	normalized growth
CNc1ccccc1C(=O)N1CCc2c([nH]c3ccccc23)C1=O	0.994 (inactive)
OCCN(CCO)c1nc(N2CCCCC2)c2nc(N(CCO)CCO)nc(N3CCCCC3)c2n1	0.995 (inactive)
COC(=O)[C@H]1[C@H]2C[C@H]3c4[nH]c5ccccc5c4CCN3C[C@H]2CC[C@@H]1O	0.992 (inactive)
Cc1cc(=O)c2c(O)c(C)c(O)cc2o1	1.01 (inactive)
COC(=O)[C@@H]1C(O)CC[C@H]2CN3CCc4c([nH]c5ccccc45)[C@@H]3C[C@@H]21 (stereo partly specified)	0.981 (inactive)

Asked: Give me measured normalized growth, please, for this compound: "N=c1nc(N2CCCCC2)cc(N)n1O"
Given back: 0.974 (inactive)

Asked: Give me measured normalized growth, please, for this compound: "CCCCOc1ccc(C(=O)CCN2CCCCC2)cc1"
Given back: 0.981 (inactive)

Asked: Give me measured normalized growth, please, for this compound: O=C(O)C1C(O)CCC2CN3CCc4c([nH]c5ccccc45)C3CC21 (stereo unspecified)
Given back: 1.01 (inactive)

Asked: Give me measured normalized growth, please, for this compound: Cc1ccc(C(=O)C(C)CN2CCCCC2)cc1 (stereo unspecified)
Given back: 1.02 (inactive)

Asked: Give me measured normalized growth, please, for this compound: "Cc1c(N(C)C)c(=O)n(-c2ccccc2)n1C"
Given back: 0.966 (inactive)

Asked: Give me measured normalized growth, please, for this compound: "COc1cc(O)c2c(=O)cc(C)oc2c1CC=C(C)C"
Given back: 0.93 (inactive)
